- measurement protocol: Pharmacokinetic
- Type: in vivo, Balb/c mice
- condition set: Balb/c, mouse, plasma, ip, 100 mg/kg, CMAX, 100 mg/kg i.p., mice
attribute measured: Cmax (µM)

In [3]: df
Out[3]:
                                smiles_repr  attribute_measured  measured
0  CNC(=O)c1ccccc1Nc1cc(Nc2ccc(N3CCOCC3)cc2OC)ncc1C(F)(F)F                Cmax       117

====

- measurement protocol: Pharmacokinetic
- Format: in vivo, Balb/c mice
- condition set: Balb/c, mouse, plasma, ip, 100 mg/kg
attribute measured: bioavailability (%)

In [3]: df
Out[3]:
                                   molecule  measured
0  CNC(=O)c1ccccc1Nc1cc(Nc2ccc(N3CCOCC3)cc2OC)ncc1C(F)(F)F [PND-1186]      42.2

====

- measurement protocol: Pharmacokinetic
- Format: in vivo, Balb/c mice
- condition set: 30 mg/kg i.p., mice, plasma
attribute measured: Cmax

                                   compound  measured
0  CNC(=O)c1ccccc1Nc1cc(Nc2ccc(N3CCOCC3)cc2OC)ncc1C(F)(F)F [PND-1186]   34.8 µM

====

- measurement protocol: Water solubility
- Assay type: physicochemical
attribute measured: solubility

                                smiles_repr  attribute_measured    measured
0  CNC(=O)c1ccccc1Nc1cc(Nc2ccc(N3CCOCC3)cc2OC)ncc1C(F)(F)F          solubility  > 20 mg/mL

====

- measurement protocol: Pharmacokinetic
- Type: in vivo, Balb/c mice
- condition set: Balb/c, mouse, plasma, ip, 30 mg/kg
attribute measured: bioavailability

>>> df
                                smiles_repr  measured
0  CNC(=O)c1ccccc1Nc1cc(Nc2ccc(N3CCOCC3)cc2OC)ncc1C(F)(F)F     31.1%
